Test system: Boophilus microplus
Assay: Boophilus microplus injection test
Format: in vivo
Details: application rate 20 μg/animal, after 7 days, laying of fertile eggs
Experimental: Solvent: dimethyl sulfoxide […] The animals are transferred into dishes and kept in a climate-controlled room. Efficacy is assessed after 7 days by laying of fertile eggs. Eggs which are not visibly fertile are stored in a climate-controlled cabinet until the larvae hatch after about 42 days.

{"MOLECULE": "COc1ccc(C(=O)Nc2cccc(-c3cnn(-c4c(C)cc(C(F)(C(F)(F)F)C(F)(F)F)cc4C(F)(F)F)c3)c2F)cc1F [Example 72]", "UNIT_TAG": "%", "efficacy": 100}
{"MOLECULE": "Cc1cc(C(F)(C(F)(F)F)C(F)(F)F)cc(C(F)(F)F)c1-n1cc(-c2cccc(NC(=O)c3ccncc3)c2F)cn1 [Example 68]", "UNIT_TAG": "%", "efficacy": 100}
{"MOLECULE": "Cc1ccc(C(=O)Nc2cc(-c3cnn(-c4c(C)cc(C(F)(C(F)(F)F)C(F)(F)F)cc4C(F)(F)F)c3)ccc2F)cc1C [Example 52]", "UNIT_TAG": "%", "efficacy": 100}
{"MOLECULE": "COc1cc(C(=O)Nc2cc(-c3cnn(-c4c(C)cc(C(F)(C(F)(F)F)C(F)(F)F)cc4C(F)(F)F)c3)cnc2Cl)ccc1F [Example 24]", "UNIT_TAG": "%", "efficacy": 100}
{"MOLECULE": "Cc1cc(C(F)(C(F)(F)F)C(F)(F)F)cc(C(F)(F)F)c1-n1cc(-c2cccc(NC(=O)c3cccs3)c2F)cn1 [Example 76]", "UNIT_TAG": "%", "efficacy": 100}
{"MOLECULE": "Cc1cc(C(F)(C(F)(F)F)C(F)(F)F)cc(C)c1-n1cc(-c2cnc(Cl)c(NC(=O)c3ccncc3)c2)cn1 [Example 12]", "UNIT_TAG": "%", "efficacy": 100}

====

Tested on: Boophilus microplus
Assay: Boophilus microplus injection test
Type: in vivo
Conditions: application rate 20 μg/animal, after 7 days, laying of fertile eggs

{"COMPOUND": "Cc1cc(C(F)(C(F)(F)F)C(F)(F)F)cc(C)c1-n1cc(-c2ccc(F)c(NC(=O)c3ccc(F)cc3)c2F)cn1 [Example 7]", "efficacy / %": 100}
{"COMPOUND": "COc1ccc(C(=O)Nc2ccc(F)c(-c3cnn(-c4c(C)cc(C(F)(C(F)(F)F)C(F)(F)F)cc4C(F)(F)F)c3)c2)cc1F [Example 2-6]", "efficacy / %": 80}
{"COMPOUND": "Cc1cc(C(F)(C(F)(F)F)C(F)(F)F)cc(C)c1-n1cc(-c2ccc(F)c(NC(=O)c3cncnc3)c2)cn1 [Example 15]", "efficacy / %": 100}
{"COMPOUND": "Cc1cc(C(F)(C(F)(F)F)C(F)(F)F)cc(C(F)(F)F)c1-n1cc(-c2ccc(F)c(NC(=O)c3ccc(Cl)c(F)c3)c2)cn1 [Example 56]", "efficacy / %": 100}
{"COMPOUND": "Cc1cc(C(F)(C(F)(F)F)C(F)(F)F)cc(C(F)(F)F)c1-n1cc(-c2ccc(F)c(NC(=O)C3(C)CC3)c2)cn1 [Example 30]", "efficacy / %": 100}
{"COMPOUND": "O=C(Nc1ccc(F)c(-c2cnn(-c3c(Br)cc(C(F)(C(F)(F)F)C(F)(F)F)cc3C(F)(F)F)c2)c1)c1cocn1 [Example 2-14]", "efficacy / %": 100}
